The reported measurements were obtained from PubChem BioAssay (NCI).

- Test system: NCI-H460 lung
- assay: NCI tumour cell line growth inhibition, 48 h
propertyName: TGI

Observed TGI on NCI-H460 lung for `CCCCCCCCCCCCCCCCCCOc1ccc(/C=C/C2=[N+](CCCl)CCO2)cc1` , please. > 100 µM

Please give the result for `NC(=O)c1ncn2c(=O)n(CCl)nnc12` too. > 100 µM

Please give the result for `O=C1NC(=O)C(c2ccc(Cl)cc2)=C1Nc1ccc(Cl)c(C(=O)O)c1` too. > 25 µM

Please give the result for O=C1[C@H]2ON(c3ccccc3)C(c3ccccc3F)[C@H]2C(=O)N1c1ccc(Cc2ccc(N3C(=O)[C@@H]4ON(c5ccccc5)C(c5ccccc5F)[C@@H]4C3=O)cc2)cc1 (stereo partly drawn) too. > 100 µM

Please give the result for `O=C(O)CN(CC(=O)O)Cc1ccn(-c2cccc(-n3ccc(CN(CC(=O)O)CC(=O)O)n3)n2)n1` too. > 100 µM

Please give the result for `Cc1ccc(-c2cc(=O)c3cc(C)c(C)c(C(=O)O)c3o2)cc1` too. > 100 µM

Please give the result for `O=C1c2ccccc2-c2nnc(-c3ccc(Cl)cc3)cc21` too. > 10 µM

Please give the result for CC(C)=CCCC1(Sc2ccccc2)C(=O)OCC1C=C(C)C (stereo not drawn) too. > 100 µM

###

- Test system: MALME-3M melanoma
- assay: NCI tumour cell line growth inhibition, 48 h
Hi there, I'd appreciate the recorded TGI for every entry that follows.

Look up TGI: `COc1ccc2oc(=Nc3ccc(F)cc3)c(C(N)=O)cc2c1` > 100 µM

Please give the result for O=C(O)C1C(=O)Oc2c(cccc2[N+](=O)[O-])C1O (stereo not drawn) too. > 100 µM

Please give the result for `c1cncc(-c2nc3ccccc3s2)c1` too. > 100 µM

###

- Test system: HCC-2998 colon
- assay: NCI tumour cell line growth inhibition, 48 h
Where a SMILES comes first, the peptide text is derived from it. [ ]: non-standard residue; d: D form. The star is where a group is joined. ξ: configuration not given here. Propanoyl(3-(4-MeO-Ph)) = COc1ccc(CCC(=O)*)cc1; Thr(3ξ) = CC(O)[C@H](N)C(=O)O; dNMeL = CN[C@H](CC(C)C)C(=O)O; ξLac = CC(O)C(=O)O
propertyName: TGI

Look up TGI: CC1C2CC(CC2N)C1(C)C (stereo unspecified) > 100 µM

Please give the result for `N#C/C(=C\Nc1ccccn1)C(=O)c1ccco1` too. > 100 µM

Please give the result for `Clc1ccc(/C=N/Nc2nnc3c4ccccc4c4ncccc4c3n2)cc1` too. > 10 µM

Please give the result for `CC(=O)OCc1ccc(O)c(C=O)c1` too. > 100 µM

Please give the result for `Cc1cc2c(c(C(=O)NCCC(=O)N[C@@H](C)C(=O)OCc3ccccc3)c1)Oc1c(cc(C)cc1C(=O)NCCC(=O)N[C@@H](C)C(=O)OCc1ccccc1)S2` too. > 100 µM

Please give the result for NNC(=O)CCC(NS(=O)(=O)c1ccc(Cl)cc1)C(=O)NN (stereo unspecified) too. > 100 µM

Please give the result for Nc1nn(CC(O)CO)c(=O)s1 (stereo unspecified) too. > 100 µM

Please give the result for `COc1cc(/C=C2\N=C(C)N(n3c(-c4ccccc4)nc4ccccc4c3=O)C2=O)cc(OC)c1OC` too. > 100 µM

Please give the result for COC(=O)C(Cc1ccccc1)NC(=O)c1ccc(CNC(=S)NCc2cccc(CNC(=S)NCc3ccccc3)c2)cc1 (stereo unspecified) too. > 62.5 µM

Please give the result for Clc1cccc(N2CCN(CCN3CCc4c([nH]c5ccccc45)C3c3cccnc3)CC2)c1 (stereo unspecified) too. > 76.9 µM

Please give the result for COC(=O)[C@@H](NC(=O)[C@@H](CC(C)C)N(C)C(=O)[C@@H]1CCCN1C(=O)C(C)O)C(C)OC(=O)CCc1ccc(OC)cc1 (stereo partly specified) (H-[ξLac]P[dNMeL][Thr(3ξ)](Propanoyl(3-(4-MeO-Ph)))-OMe) too. > 100 µM

###

- Tested on: RPMI-8226 leukemia
- assay: NCI tumour cell line growth inhibition, 48 h
Hi there, I'd appreciate the recorded GI50 for every entry that follows.

Look up GI50: `Cc1cc([N+](=O)[O-])ccc1NS(=O)(=O)c1cc(Cl)ccc1Cl` 1.9 µM

Please give the result for `CCOc1ccc2nc(-c3cccc(OCC(=O)NC(C)C)c3)nc(Nc3ccc(-c4cn[nH]c4)cc3)c2c1` too. 0.232 µM

Please give the result for `O=[N+]([O-])c1ccc2nc(/C=C(\O)c3ccccc3)c(/C=C(\O)c3ccccc3)nc2c1` too. 5.21 µM

Please give the result for `COc1ccc2c3c(c4ccccc4cc13)C(=O)N(CCN(C)CCN)C2=O` too. 0.166 µM

Please give the result for `C[C@]1(C(=O)O)N[C@H](C(=O)O)CS1` too. > 1000 µM

###

- Tested on: SNB-19 CNS
- assay: NCI tumour cell line growth inhibition, 48 h
propertyName: TGI

Look up TGI: `N/C(=N\N=C\c1cc2c(cc1Cl)OCO2)NO` > 45.4 µM

Please give the result for `Cc1cc([N+](=O)[O-])ccc1NS(=O)(=O)c1cc(Cl)ccc1Cl` too. > 100 µM

Please give the result for `C[C@H](N)C(=O)N[C@@H]1[C@H]2C(=C(O)C[C@@H](O)[C@@H]2O)C(=O)O[C@@H]1C` too. > 100 µM

###

- Tested on: HL-60(TB) leukemia
- assay: NCI tumour cell line growth inhibition, 48 h
Where a SMILES comes first, the peptide text is derived from it. [ ]: non-standard residue; d: D form. pGlu = O=C1CC[CH](C(=O)O)N1
propertyName: TGI

Look up TGI: `COc1ccc([I+]c2ccccc2)cc1` > 95.1 µM

Please give the result for CC1(C)O[C@H]2OC(CO)C(OS(C)(=O)=O)[C@H]2O1 (stereo partly specified) too. > 100 µM

Please give the result for Cc1ccc(C(=O)N2c3ccccc3N(C)n3cccc3C2CC(=O)O)cc1 (stereo unspecified) too. > 100 µM

Please give the result for CN(C(=O)C12C3(C(=O)C(C)(C)C)C4C5(C#N)C3C1(C(=O)C(C)(C)C)C5C42C(=O)C(C)(C)C)C(C)(C)C (stereo unspecified) too. > 50 µM

Please give the result for `Clc1ccc(/C=N/Nc2nnc3c4ccccc4c4ncccc4c3n2)cc1` too. > 10 µM

Please give the result for `N#CCSc1c(-c2ccccc2)c(=O)n(-c2ccccc2)c(=S)n1-c1ccccc1` too. > 100 µM

Please give the result for CC(NC(=O)C(Cc1cnc[nH]1)NC(=O)C1CCC(=O)N1)C(N)=O (stereo not drawn) ([pGlu]-His-Ala-NH2; configuration not given here) too. > 100 µM

Please give the result for `COc1ccc2oc(=Nc3ccc(F)cc3)c(C(N)=O)cc2c1` too. > 100 µM

Please give the result for `COc1c(-c2cccs2)oc2c(CC(=O)O)cccc2c1=O` too. > 100 µM

Please give the result for `O=C1NC(=O)C(c2ccc(Cl)cc2)=C1Nc1ccc(Cl)c(C(=O)O)c1` too. > 25 µM

Please give the result for `O=C(CCc1ccc(O)c(O)c1)NCCc1ccc(O)c(O)c1` too. > 100 µM

###

- Tested on: UACC-62 melanoma
- assay: NCI tumour cell line growth inhibition, 48 h
Where a SMILES comes first, the peptide text is derived from it. [ ]: non-standard residue; d: D form. The star is where a group is joined. ξ: configuration not given here. Propanoyl(3-(4-MeO-Ph)) = COc1ccc(CCC(=O)*)cc1; Thr(3ξ) = CC(O)[C@H](N)C(=O)O; dNMeL = CN[C@H](CC(C)C)C(=O)O; ξLac = CC(O)C(=O)O
Hi there, I'd appreciate the recorded TGI for every entry that follows.

Look up TGI: CCCCCCCC(=O)OCC1OC(n2cc(F)c(=O)[nH]c2=O)C(NC(=O)OCc2ccccc2)C(O)C1O (stereo not given) > 100 µM

Please give the result for COC(=O)[C@@H](NC(=O)[C@@H](CC(C)C)N(C)C(=O)[C@@H]1CCCN1C(=O)C(C)O)C(C)OC(=O)CCc1ccc(OC)cc1 (stereo not given in full) (H-[ξLac]P[dNMeL][Thr(3ξ)](Propanoyl(3-(4-MeO-Ph)))-OMe) too. > 100 µM

Please give the result for `C[C@H](N)C(=O)N[C@@H]1[C@H]2C(=C(O)C[C@@H](O)[C@@H]2O)C(=O)O[C@@H]1C` too. > 100 µM

Please give the result for O=C(O)C1C(=O)Oc2c(cccc2[N+](=O)[O-])C1O (stereo not given) too. > 100 µM

Please give the result for `O=C1NC(=O)C(c2ccc(Cl)cc2)=C1Nc1ccc(Cl)c(C(=O)O)c1` too. > 25 µM

###

Hi there, I'd appreciate the recorded TGI for every entry that follows.
- Test system: TK-10 renal
- assay: NCI tumour cell line growth inhibition, 48 h

Look up TGI: CCO/C=C1\N=C(C(Cl)c2ccccc2)OC1=O (stereo not drawn) > 100 µM

Please give the result for CC1(C)OCC(COC(=O)NCn2cc(-c3ccccc3)nn2)O1 (stereo not drawn) too. > 100 µM

Please give the result for `NC(=S)N/N=C/c1ccc(O)cn1` too. > 1390 µM
